# system-under-test: UniProt Q15375
# Sequence (Q15375 whole entry, looked up): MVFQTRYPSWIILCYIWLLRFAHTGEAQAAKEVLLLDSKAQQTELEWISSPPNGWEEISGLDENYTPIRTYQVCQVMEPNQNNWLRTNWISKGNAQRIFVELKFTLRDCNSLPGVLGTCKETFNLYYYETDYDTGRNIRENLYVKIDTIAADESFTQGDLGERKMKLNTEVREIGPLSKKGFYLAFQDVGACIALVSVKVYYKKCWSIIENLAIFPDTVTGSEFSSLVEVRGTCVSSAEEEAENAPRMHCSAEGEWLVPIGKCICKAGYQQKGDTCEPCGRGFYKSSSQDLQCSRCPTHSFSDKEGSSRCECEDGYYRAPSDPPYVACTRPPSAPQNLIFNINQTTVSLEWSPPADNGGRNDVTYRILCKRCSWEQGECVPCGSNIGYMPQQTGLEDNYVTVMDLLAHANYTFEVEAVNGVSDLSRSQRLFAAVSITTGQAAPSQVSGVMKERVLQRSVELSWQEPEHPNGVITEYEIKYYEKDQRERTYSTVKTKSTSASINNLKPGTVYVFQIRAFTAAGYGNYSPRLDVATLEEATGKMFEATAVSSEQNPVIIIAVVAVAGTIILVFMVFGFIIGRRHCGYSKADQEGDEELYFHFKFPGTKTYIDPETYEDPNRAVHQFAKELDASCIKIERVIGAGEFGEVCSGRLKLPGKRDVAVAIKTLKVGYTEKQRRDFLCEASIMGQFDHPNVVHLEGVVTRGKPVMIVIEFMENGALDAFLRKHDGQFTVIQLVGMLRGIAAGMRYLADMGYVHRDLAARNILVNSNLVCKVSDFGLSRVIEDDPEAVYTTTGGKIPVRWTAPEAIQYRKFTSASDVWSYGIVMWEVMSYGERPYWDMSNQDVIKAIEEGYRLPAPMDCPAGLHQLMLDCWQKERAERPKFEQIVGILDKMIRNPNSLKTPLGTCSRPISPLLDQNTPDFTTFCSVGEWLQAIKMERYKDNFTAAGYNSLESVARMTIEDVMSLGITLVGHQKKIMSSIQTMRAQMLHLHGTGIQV
# procedure-details: radiometric filter-binding kinase assay, Kinase HotSpot
# condition-parameters: compound 0.5 µM; ATP 10 µM
Listed here: items and their measured residual activity.
Response body: numeric value in %, unit text excluded.

[[record]]
compound = "O=C(Nc1cccc(Nc2cc(Nc3cccc(C(F)(F)F)c3)ncn2)c1)C1CC1"
system_under_test = "UniProt Q15375"
quantity_measured = "residual activity"
units = "%"
value_observed = 101

[[record]]
compound = "COc1ccc(CNC(=O)Nc2ncc([N+](=O)[O-])s2)cc1"
system_under_test = "UniProt Q15375"
quantity_measured = "residual activity"
units = "%"
value_observed = 96.6

[[record]]
compound = "O=C(O)/C=C/c1cc(Br)c(Br)c(Br)c1Br"
system_under_test = "UniProt Q15375"
quantity_measured = "residual activity"
units = "%"
value_observed = 94.1

[[record]]
compound = "O=C1NC(=O)/C(=C\\c2ccc3nccnc3c2)S1"
system_under_test = "UniProt Q15375"
quantity_measured = "residual activity"
units = "%"
value_observed = 96.7

[[record]]
compound = "O=C1Cc2c([nH]c3ccc(Br)cc23)-c2ccccc2N1"
system_under_test = "UniProt Q15375"
quantity_measured = "residual activity"
units = "%"
value_observed = 101


Per the record, COc1cc2ncc(-c3ccccc3)nc2cc1OC has residual activity of 94.7

Lookup result for COc1ccc(OC)c2c(=S)c3ccccc3[nH]c12 ; measured residual activity: 89.7

So for O=C1Nc2ccccc2/C1=C1\Nc2ccccc2\C1=N/O , the logged residual activity turned out to be 89.3

What the record says about Cn1sc(=O)n(Cc2ccccc2)c1=O : residual activity is 105

Please fill in: residual activity reported for O=C1NC(=O)C(c2c[nH]c3ccccc23)=C1c1c[nH]c2ccccc12 = 94.3

# compound Cn1nc2c3c(cccc31)C(=O)c1ccccc1-2 ; its residual activity = 104

Quick note, residual activity for O=C1Nc2ccccc2/C1=C1/Nc2ccccc2/C1=N\OCCC(O)CO (configuration not stated) landed at 71.4

###

# system-under-test: AURKA (human) (UniProt O14965)
# Sequence (O14965 whole entry, looked up): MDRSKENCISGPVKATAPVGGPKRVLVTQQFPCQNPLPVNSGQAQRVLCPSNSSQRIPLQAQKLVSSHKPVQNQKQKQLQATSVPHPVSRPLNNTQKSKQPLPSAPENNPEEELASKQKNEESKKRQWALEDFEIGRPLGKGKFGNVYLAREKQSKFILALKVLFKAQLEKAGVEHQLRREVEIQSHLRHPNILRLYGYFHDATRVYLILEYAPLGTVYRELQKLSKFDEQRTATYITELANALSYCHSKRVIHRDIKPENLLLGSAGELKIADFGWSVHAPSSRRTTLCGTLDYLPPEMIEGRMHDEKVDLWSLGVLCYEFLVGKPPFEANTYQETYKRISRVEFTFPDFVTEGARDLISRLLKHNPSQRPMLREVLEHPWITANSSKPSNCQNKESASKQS
# procedure-details: radiometric filter-binding kinase assay, Kinase HotSpot
# condition-parameters: compound 0.5 µM; ATP 10 µM
Overview of recorded residual activity for various compounds
Provide the reading as a plain figure in %.

[[record]]
molecule = "COc1cc2ncc(-c3ccccc3)nc2cc1OC"
quantity_measured = "residual activity"
value_observed = 90.3

[[record]]
molecule = "COc1ccc(CNC(=O)Nc2ncc([N+](=O)[O-])s2)cc1"
quantity_measured = "residual activity"
value_observed = 97.4

[[record]]
molecule = "Oc1ccc(Nc2nc(-c3ccc(Cl)cc3)cs2)cc1"
quantity_measured = "residual activity"
value_observed = 89.4

[[record]]
molecule = "CN([C@@H](Cc1ccc(OS(=O)(=O)c2cccc3cnccc23)cc1)C(=O)N1CCN(c2ccccc2)CC1)S(=O)(=O)c1cccc2cnccc12"
quantity_measured = "residual activity"
value_observed = 86.2

[[record]]
molecule = "CN(C)C[C@H]1CCn2c(c(C3=C(c4cn(C)c5ccccc45)C(=O)NC3=O)c3ccccc32)C1"
quantity_measured = "residual activity"
value_observed = 87.7

[[record]]
molecule = "O=C1Cc2c([nH]c3ccc(Br)cc23)-c2ccccc2N1"
quantity_measured = "residual activity"
value_observed = 99.7

[[record]]
molecule = "O=C1NC(=O)/C(=C\\c2ccc3nccnc3c2)S1"
quantity_measured = "residual activity"
value_observed = 97.2

[[record]]
molecule = "Nc1nccc(-c2c(-c3ccc(F)cc3)ncn2C2CCNCC2)n1"
quantity_measured = "residual activity"
value_observed = 100


residual activity reported for this compound CCN(CC)CCCCN1c2ccccc2Oc2ccc(Cl)cc21 : 93.3

residual activity reported for this compound Nc1nnc2[nH]c3ccccc3nc1-2 : 111

residual activity in this record for Cn1sc(=O)n(Cc2ccccc2)c1=O : 104

###

# system-under-test: TAOK2 (human) (UniProt Q9UL54)
# Sequence (Q9UL54 whole entry, looked up): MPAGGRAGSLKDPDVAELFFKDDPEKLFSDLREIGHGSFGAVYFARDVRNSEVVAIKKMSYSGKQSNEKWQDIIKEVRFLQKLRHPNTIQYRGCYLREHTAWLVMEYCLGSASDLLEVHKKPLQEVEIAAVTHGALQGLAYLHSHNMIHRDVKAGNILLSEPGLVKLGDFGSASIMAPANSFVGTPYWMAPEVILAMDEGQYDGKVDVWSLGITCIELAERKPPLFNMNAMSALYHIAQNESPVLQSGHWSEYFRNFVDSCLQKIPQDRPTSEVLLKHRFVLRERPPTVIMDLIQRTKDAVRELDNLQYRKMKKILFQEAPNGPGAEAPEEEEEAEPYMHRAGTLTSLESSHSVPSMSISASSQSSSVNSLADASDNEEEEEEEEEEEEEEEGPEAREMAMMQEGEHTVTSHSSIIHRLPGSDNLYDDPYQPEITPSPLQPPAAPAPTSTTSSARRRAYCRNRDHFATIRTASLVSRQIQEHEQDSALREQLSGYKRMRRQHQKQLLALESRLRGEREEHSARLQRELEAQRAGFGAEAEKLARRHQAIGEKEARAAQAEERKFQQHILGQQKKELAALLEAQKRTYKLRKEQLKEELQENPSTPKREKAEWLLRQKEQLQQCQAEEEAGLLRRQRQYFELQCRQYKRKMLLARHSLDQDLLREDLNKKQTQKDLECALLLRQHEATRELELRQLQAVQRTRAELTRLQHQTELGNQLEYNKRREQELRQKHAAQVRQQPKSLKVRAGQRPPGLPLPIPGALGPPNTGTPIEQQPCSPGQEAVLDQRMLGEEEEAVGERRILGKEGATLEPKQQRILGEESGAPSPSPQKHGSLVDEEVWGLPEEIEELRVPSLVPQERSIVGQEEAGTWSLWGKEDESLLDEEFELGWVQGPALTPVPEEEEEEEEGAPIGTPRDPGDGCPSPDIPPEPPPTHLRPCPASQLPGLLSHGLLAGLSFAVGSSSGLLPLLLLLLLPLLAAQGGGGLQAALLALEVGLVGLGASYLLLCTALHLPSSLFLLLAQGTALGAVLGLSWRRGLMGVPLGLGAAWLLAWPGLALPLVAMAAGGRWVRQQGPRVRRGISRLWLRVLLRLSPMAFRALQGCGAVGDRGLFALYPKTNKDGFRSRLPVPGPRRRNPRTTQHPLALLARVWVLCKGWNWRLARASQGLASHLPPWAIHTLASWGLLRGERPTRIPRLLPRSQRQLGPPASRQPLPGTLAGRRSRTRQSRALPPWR
# procedure-details: radiometric filter-binding kinase assay, Kinase HotSpot
# condition-parameters: compound 0.5 µM; ATP 10 µM
Items are presented alongside their recorded residual activity.
Please give a number only; it is taken to be in %.

[[record]]
molecule = "CCn1cnc2c(Nc3cccc(Cl)c3)nc(N[C@@H]3CCCC[C@@H]3N)nc21"
value_observed = 101


In plain terms, O=C(O)/C=C/c1cc(Br)c(Br)c(Br)c1Br has a documented residual activity of 88.9

The reported residual activity of the compound COc1ccc(CNC(=O)Nc2ncc([N+](=O)[O-])s2)cc1 was 98.5

Query O=C1Cc2c([nH]c3ccc(Br)cc23)-c2ccccc2N1 yields residual activity of 94

Data point: Nc1nccc(-c2c(-c3ccc(F)cc3)ncn2C2CCNCC2)n1 ; residual activity = 98

Reported residual activity for CN([C@@H](Cc1ccc(OS(=O)(=O)c2cccc3cnccc23)cc1)C(=O)N1CCN(c2ccccc2)CC1)S(=O)(=O)c1cccc2cnccc12 was 98.3

For record Cc1nc2cc3nc(-c4cccs4)cnc3cc2n1C the listed residual activity is 99.7

###

# system-under-test: MAP3K14 (human)
# procedure-details: radiometric filter-binding kinase assay, Kinase HotSpot
# condition-parameters: compound 0.5 µM; ATP 10 µM
quantity-measured: residual activity (%)
Numbers only; they are read as %.

Worked cases, residual activity given:
[[record]]
molecule = "O=C1NC(=O)C(c2cn(CCCO)c3ncccc23)=C1c1cnccn1"
units = "%"
value_observed = 78.1

[[record]]
molecule = "O=C1NC(=O)C(c2c[nH]c3ccccc23)=C1c1c[nH]c2ccccc12"
units = "%"
value_observed = 91

[[record]]
molecule = "O=C(Nc1cccc(Nc2cc(Nc3cccc(C(F)(F)F)c3)ncn2)c1)C1CC1"
units = "%"
value_observed = 77.9

[[record]]
molecule = "COc1ccc(CNC(=O)Nc2ncc([N+](=O)[O-])s2)cc1"
units = "%"
value_observed = 84.2


The compound listed as CCN(CC)CCCCN1c2ccccc2Oc2ccc(Cl)cc21 has a reported residual activity of 95.6

###

# system-under-test: CDK4 CCND3 (human) (UniProt P30281+P11802)
# Sequence (P11802 whole entry, looked up): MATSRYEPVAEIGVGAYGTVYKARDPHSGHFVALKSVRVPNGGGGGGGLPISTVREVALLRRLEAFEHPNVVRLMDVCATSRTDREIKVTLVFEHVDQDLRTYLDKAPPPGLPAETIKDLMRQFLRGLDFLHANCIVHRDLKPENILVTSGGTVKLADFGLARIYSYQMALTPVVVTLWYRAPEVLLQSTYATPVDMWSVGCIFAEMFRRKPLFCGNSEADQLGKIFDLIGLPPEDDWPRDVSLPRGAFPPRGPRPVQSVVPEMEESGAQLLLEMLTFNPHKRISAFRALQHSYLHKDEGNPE
# Sequence (P30281 whole entry, looked up): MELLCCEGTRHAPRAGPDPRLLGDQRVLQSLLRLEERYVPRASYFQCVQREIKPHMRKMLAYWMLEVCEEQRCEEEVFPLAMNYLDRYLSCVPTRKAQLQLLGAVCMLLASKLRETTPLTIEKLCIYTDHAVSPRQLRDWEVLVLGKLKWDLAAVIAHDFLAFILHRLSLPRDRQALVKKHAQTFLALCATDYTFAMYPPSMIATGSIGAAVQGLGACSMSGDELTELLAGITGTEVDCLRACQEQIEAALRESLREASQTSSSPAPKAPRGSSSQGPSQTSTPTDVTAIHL
# procedure-details: radiometric filter-binding kinase assay, Kinase HotSpot
# condition-parameters: compound 0.5 µM; ATP 10 µM
# residual activity annotations
Report as a plain number; the unit % is understood.

[[record]]
molecule = "CCn1cnc2c(Nc3cccc(Cl)c3)nc(N[C@@H]3CCCC[C@@H]3N)nc21"
system_under_test = "CDK4 CCND3 (human) (UniProt P30281+P11802)"
value_observed = 71.5

[[record]]
molecule = "O=C1NC(=O)C(c2c[nH]c3ccccc23)=C1c1c[nH]c2ccccc12"
system_under_test = "CDK4 CCND3 (human) (UniProt P30281+P11802)"
value_observed = 89.8

[[record]]
molecule = "O=C1NC(=O)C(c2cn(CCCO)c3ncccc23)=C1c1cnccn1"
system_under_test = "CDK4 CCND3 (human) (UniProt P30281+P11802)"
value_observed = 95.9

[[record]]
molecule = "CCN(CC)CCCCN1c2ccccc2Oc2ccc(Cl)cc21"
system_under_test = "CDK4 CCND3 (human) (UniProt P30281+P11802)"
value_observed = 102

[[record]]
molecule = "CC(=O)O/N=C1\\C(=C2\\C(=O)Nc3cc(Br)ccc32)Nc2ccccc21"
system_under_test = "CDK4 CCND3 (human) (UniProt P30281+P11802)"
value_observed = 86.2


# residual activity of CN([C@@H](Cc1ccc(OS(=O)(=O)c2cccc3cnccc23)cc1)C(=O)N1CCN(c2ccccc2)CC1)S(=O)(=O)c1cccc2cnccc12 = 97.8

Per the record, CN(C)C[C@H]1CCn2c(c(C3=C(c4cn(C)c5ccccc45)C(=O)NC3=O)c3ccccc32)C1 has residual activity of 99.7

Note to self: residual activity recorded for O=C1Nc2ccccc2/C1=C1\Nc2ccccc2\C1=N/O was 98.9

Quick note, residual activity for Cc1ccc(NC(=O)c2ccc(CN3CCN(C)CC3)cc2)cc1Nc1nccc(-c2cccnc2)n1 landed at 107

###

Form field: residual activity (one value per entry).
# system-under-test: UniProt P51956
# Sequence (P51956 whole entry, looked up): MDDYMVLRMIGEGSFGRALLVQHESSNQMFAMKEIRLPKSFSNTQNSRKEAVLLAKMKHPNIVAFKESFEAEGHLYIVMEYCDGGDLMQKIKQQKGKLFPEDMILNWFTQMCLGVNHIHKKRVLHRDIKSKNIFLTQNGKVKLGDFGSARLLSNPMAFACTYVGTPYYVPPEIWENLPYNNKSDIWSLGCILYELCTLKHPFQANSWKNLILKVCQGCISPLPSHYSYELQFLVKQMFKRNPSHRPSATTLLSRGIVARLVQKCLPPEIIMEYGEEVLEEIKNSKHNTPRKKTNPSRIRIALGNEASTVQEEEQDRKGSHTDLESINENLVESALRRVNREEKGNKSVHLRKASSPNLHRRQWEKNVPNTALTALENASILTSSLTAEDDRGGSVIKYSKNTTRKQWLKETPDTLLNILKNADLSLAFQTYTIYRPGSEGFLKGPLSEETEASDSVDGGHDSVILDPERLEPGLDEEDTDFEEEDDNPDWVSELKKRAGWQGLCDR
# procedure-details: radiometric filter-binding kinase assay, Kinase HotSpot
# condition-parameters: compound 0.5 µM; ATP 10 µM
Field: numeric (%). Do not append units.

Below are worked cases with known answers.
[[record]]
compound = "CCN(CC)CCCCN1c2ccccc2Oc2ccc(Cl)cc21"
quantity_measured = "residual activity"
units = "%"
value_observed = 103

[[record]]
compound = "CC(C)c1nn(-c2c(Cl)cccc2Cl)c2nc(Cc3ccc(OCCO)cc3)nc(O)c12"
quantity_measured = "residual activity"
units = "%"
value_observed = 87.3

[[record]]
compound = "Nc1nccc(-c2c(-c3ccc(F)cc3)ncn2C2CCNCC2)n1"
quantity_measured = "residual activity"
units = "%"
value_observed = 99

[[record]]
compound = "O=C(CCCc1ccc(-c2ccccc2F)cc1)Nc1ccc(O)cc1"
quantity_measured = "residual activity"
units = "%"
value_observed = 109

[[record]]
compound = "CC(C)[C@H](CO)Nc1nc(Nc2cc(N)cc(Cl)c2)c2ncn(C(C)C)c2n1"
quantity_measured = "residual activity"
units = "%"
value_observed = 100


Field residual activity (entry O=C1Nc2ccccc2/C1=C1/Nc2ccccc2/C1=N\OCCC(O)CO (stereo unspecified) ) reads 102

So, O=C1NC(=O)C(c2c[nH]c3ccccc23)=C1c1c[nH]c2ccccc12 ? Its residual activity was 88.2

According to the records, this compound O=C1NC(=O)C(c2cn(CCCO)c3ncccc23)=C1c1cnccn1 displays residual activity of 97.5

Lab book: residual activity of Cn1cnc2cc3c(Nc4cccc(Br)c4)ncnc3cc21 noted as 88.2

residual activity recorded for this compound, CN(C)C[C@H]1CCn2c(c(C3=C(c4cn(C)c5ccccc45)C(=O)NC3=O)c3ccccc32)C1 , is 99.4

Reported residual activity for O=C1NC(=O)/C(=C\c2ccc3nccnc3c2)S1 was 97.3
